The measured values listed here are drawn from PubChem BioAssay AID2060488.

- System: 966289-007-R4-J1-PDC complex spheroid viability
- protocol: Anticancer human tumor 966289-007-R4-J1-PDC patient-derived pancreatic adenocarcinoma cell line growth inhibition [GQUAD]
- experimental parameters: second compound 0.0316 µM; first compound 0.0316 µM; active compounds read low
Entries annotated with measured viability, T/C
Hi! Could you send only the number? It should be in %, unit omitted.

Example entries begin here.
COc1ncnc(C2CC2)c1-c1ncc2cnn(Cc3ccc(-c4nc(C(F)(F)F)cn4C(C)C)cc3)c2n1 + CN(C)c1ccc(Nc2c3ccc(NC(=O)CCN4CCCC4)cc3nc3cc(NC(=O)CCN4CCCC4)ccc23)cc1: 103
CCc1c2c(nc3ccc(O)cc13)-c1cc3c(c(=O)n1C2)COC(=O)[C@]3(O)CC + Cc1[nH]c2ccc(F)cc2c1-c1nc2c3cccnc3c3ncccc3c2[nH]1: 0.49
COc1cccc2c1C(=O)c1c(O)c3c(c(O)c1C2=O)CC(O)(C(=O)CO)CC3OC1CC(N)C(O)C(C)O1 (stereo not given) + CN(C)c1ccc(Nc2c3ccc(NC(=O)CCN4CCCC4)cc3nc3cc(NC(=O)CCN4CCCC4)ccc23)cc1: 112
CC(C)n1c(=O)n(C)c2cnc3cc(F)c(-c4ccc(OCCCN5CCCCC5)nc4)cc3c21 + Cc1cnc(CNC(=O)c2c(=O)c3ccc(N4CCCN(C)CC4)nc3n3c2sc2ccccc23)cn1: 36.8
Nc1ccn(C2OC(CO)C(O)C2(F)F)c(=O)n1 (stereo not given) + CN(C)c1ccc(Nc2c3ccc(NC(=O)CCN4CCCC4)cc3nc3cc(NC(=O)CCN4CCCC4)ccc23)cc1: 14

// query Requested field: viability, T/C. Item: Cn1ncnc1[C@H]1c2n[nH]c(=O)c3cc(F)cc(c23)N[C@@H]1c1ccc(F)cc1 + Cc1cnc(CNC(=O)c2c(=O)c3ccc(N4CCCN(C)CC4)nc3n3c2sc2ccccc23)cn1
// result 25.9

// query Follow-up entry: CCCS(=O)(=O)Nc1ccc(F)c(C(=O)c2c[nH]c3ncc(-c4ccc(Cl)cc4)cc23)c1F + Cc1[nH]c2ccc(F)cc2c1-c1nc2c3cccnc3c3ncccc3c2[nH]1
// result 111

// query Follow-up entry: CC[C@@]1(O)C(=O)OCc2c1cc1n(c2=O)Cc2cc3c(CN(C)C)c(O)ccc3nc2-1 + Cc1cnc(CNC(=O)c2c(=O)c3ccc(N4CCCN(C)CC4)nc3n3c2sc2ccccc23)cn1
// result 11

// query Follow-up entry: Cc1[nH]c2ccccc2c1CCNCc1ccc(/C=C/C(=O)NO)cc1 + Cc1[nH]c2ccc(F)cc2c1-c1nc2c3cccnc3c3ncccc3c2[nH]1
// result 103

// query Follow-up entry: CCCS(=O)(=O)Nc1ccc(F)c(C(=O)c2c[nH]c3ncc(-c4ccc(Cl)cc4)cc23)c1F + Cc1cnc(CNC(=O)c2c(=O)c3ccc(N4CCCN(C)CC4)nc3n3c2sc2ccccc23)cn1
// result 117

// query Follow-up entry: COc1ncnc(C2CC2)c1-c1ncc2cnn(Cc3ccc(-c4nc(C(F)(F)F)cn4C(C)C)cc3)c2n1 + Cc1[nH]c2ccc(F)cc2c1-c1nc2c3cccnc3c3ncccc3c2[nH]1
// result 106

// query Follow-up entry: C=CCn1c(=O)c2cnc(Nc3ccc(N4CCN(C)CC4)cc3)nc2n1-c1cccc(C(C)(C)O)n1 + Cc1cnc(CNC(=O)c2c(=O)c3ccc(N4CCCN(C)CC4)nc3n3c2sc2ccccc23)cn1
// result 105

// query Follow-up entry: CC1COCCN1c1cc(C2(S(C)(=N)=O)CC2)nc(-c2ccnc3[nH]ccc23)n1 (stereo not given) + Cc1[nH]c2ccc(F)cc2c1-c1nc2c3cccnc3c3ncccc3c2[nH]1
// result 104

// query Follow-up entry: Cc1cccc(N(C)C(=O)C2C(O)CCN2c2nc(C)cc(C(F)(F)F)c2C#N)c1 (stereo not given) + CN(C)c1ccc(Nc2c3ccc(NC(=O)CCN4CCCC4)cc3nc3cc(NC(=O)CCN4CCCC4)ccc23)cc1
// result 107

// query Follow-up entry: C=CCn1c(=O)c2cnc(Nc3ccc(N4CCN(C)CC4)cc3)nc2n1-c1cccc(C(C)(C)O)n1 + Cc1[nH]c2ccc(F)cc2c1-c1nc2c3cccnc3c3ncccc3c2[nH]1
// result 101

// query Follow-up entry: O=C(NO)c1cnc(N2CCN(S(=O)(=O)c3ccc4ccccc4c3)CC2)nc1 + CN(C)c1ccc(Nc2c3ccc(NC(=O)CCN4CCCC4)cc3nc3cc(NC(=O)CCN4CCCC4)ccc23)cc1
// result 112

// query Follow-up entry: CC(C)n1c(=O)n(C)c2cnc3cc(F)c(-c4ccc(OCCCN5CCCCC5)nc4)cc3c21 + CN(C)c1ccc(Nc2c3ccc(NC(=O)CCN4CCCC4)cc3nc3cc(NC(=O)CCN4CCCC4)ccc23)cc1
// result 108

// query Follow-up entry: CC1COCCN1c1cc(C2(S(C)(=N)=O)CC2)nc(-c2ccnc3[nH]ccc23)n1 (stereo not given) + Cc1cnc(CNC(=O)c2c(=O)c3ccc(N4CCCN(C)CC4)nc3n3c2sc2ccccc23)cn1
// result 119

// query Follow-up entry: Cc1cccc(N(C)C(=O)C2C(O)CCN2c2nc(C)cc(C(F)(F)F)c2C#N)c1 (stereo not given) + Cc1cnc(CNC(=O)c2c(=O)c3ccc(N4CCCN(C)CC4)nc3n3c2sc2ccccc23)cn1
// result 111

// query Follow-up entry: CC(=O)O[C@H]1C(=O)[C@@]2(C)[C@H]([C@H](OC(=O)c3ccccc3)[C@]3(O)C[C@H](OC(=O)[C@H](O)[C@@H](NC(=O)c4ccccc4)c4ccccc4)C(C)=C1C3(C)C)[C@]1(OC(C)=O)CO[C@@H]1C[C@@H]2O + Cc1cnc(CNC(=O)c2c(=O)c3ccc(N4CCCN(C)CC4)nc3n3c2sc2ccccc23)cn1
// result 3.55

----------
- System: 966289-007-R4-J1-PDC complex spheroid viability
- protocol: Anticancer human tumor 966289-007-R4-J1-PDC cell line growth inhibition [GQUAD];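 also: spheroids exposed to the agents for seven days before readout; percent viability relative to DMSO vehicle control wells taken as 100%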
- experimental parameters: second compound 0.1 µM; first compound 1 µM; active compounds read low
Entries annotated with measured viability, T/C

Example entries begin here.
Cc1cccc(N(C)C(=O)C2C(O)CCN2c2nc(C)cc(C(F)(F)F)c2C#N)c1 (stereo not drawn) + Cc1[nH]c2ccc(F)cc2c1-c1nc2c3cccnc3c3ncccc3c2[nH]1: 101%
COc1ccc([C@@H](O)c2cc(-c3ncnc4cc(N5CCOCC5)ccc34)c(F)cc2Cl)nn1 + Cc1cnc(CNC(=O)c2c(=O)c3ccc(N4CCCN(C)CC4)nc3n3c2sc2ccccc23)cn1: 11.2%

Turning now to a further compound:
// query Requested field: viability, T/C. Item: CC(C)n1c(=O)n(C)c2cnc3cc(F)c(-c4ccc(OCCCN5CCCCC5)nc4)cc3c21 + Cc1[nH]c2ccc(F)cc2c1-c1nc2c3cccnc3c3ncccc3c2[nH]1
// result 105%

----------
- System: 966289-007-R4-J1-PDC complex spheroid viability
- protocol: Anticancer human tumor 966289-007-R4-J1-PDC cell line growth inhibition [GQUAD];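 also: spheroids exposed to the agents for seven days before readout; percent viability relative to DMSO vehicle control wells taken as 100%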
- experimental parameters: second compound 1 µM; first compound 0.0316 µM; active compounds read low
- Text: DNA G-quadruplex Stabilizer Agents in Combinations in Complex Spheroids A high-throughput screen of multi-cell type tumor spheroids was designed to identify active combinations of DNA G-quadruplex stabilizer agents and targeted small molecules. […] Compounds. […] If the clinical Cmax for an agent had not been determined, the highest concentration tested was 10 microM. […]
Entries annotated with measured viability, T/C
Hi! Could you send only the number? It should be in %, unit omitted.

Example entries begin here.
C=CC(=O)N1CCN(c2nc(=O)n(-c3c(C)ccnc3C(C)C)c3nc(-c4c(O)cccc4F)c(F)cc23)C(C)C1 (stereo not drawn) + Cc1[nH]c2ccc(F)cc2c1-c1nc2c3cccnc3c3ncccc3c2[nH]1: 95.4
C=CC(=O)N1CCN(c2nc(=O)n(-c3c(C)ccnc3C(C)C)c3nc(-c4c(O)cccc4F)c(F)cc23)C(C)C1 (stereo not drawn) + Cc1cnc(CNC(=O)c2c(=O)c3ccc(N4CCCN(C)CC4)nc3n3c2sc2ccccc23)cn1: 7.08

Turning now to a further compound:
// query Requested field: viability, T/C. Item: CC1COCCN1c1cc(C2(O)CC3CCC(C2)O3)c2cnn(-c3ccn[nH]3)c2n1 (stereo not drawn) + Cc1cnc(CNC(=O)c2c(=O)c3ccc(N4CCCN(C)CC4)nc3n3c2sc2ccccc23)cn1
// result 5.69

----------
- Test system: 966289-007-R4-J1-PDC complex spheroid viability
- protocol: Anticancer human tumor 966289-007-R4-J1-PDC cell line growth inhibition [GQUAD]; active means viability on the fitted dose curve at most 10% of control; inactive means the rest;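 also: spheroids exposed to the agents for seven days before readout; percent viability relative to DMSO vehicle control wells taken as 100%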
- experimental parameters: second compound 0.1 µM; first compound 10 µM
A correct response names exactly one class from active, inactive

Cc1cccc(N(C)C(=O)C2C(O)CCN2c2nc(C)cc(C(F)(F)F)c2C#N)c1 (stereo not given) + Cc1cnc(CNC(=O)c2c(=O)c3ccc(N4CCCN(C)CC4)nc3n3c2sc2ccccc23)cn1: inactive
Cc1cccc(N(C)C(=O)C2C(O)CCN2c2nc(C)cc(C(F)(F)F)c2C#N)c1 (stereo not given) + CN(C)c1ccc(Nc2c3ccc(NC(=O)CCN4CCCC4)cc3nc3cc(NC(=O)CCN4CCCC4)ccc23)cc1: inactive
Nc1ccn(C2OC(CO)C(O)C2(F)F)c(=O)n1 (stereo not given) + Cc1cnc(CNC(=O)c2c(=O)c3ccc(N4CCCN(C)CC4)nc3n3c2sc2ccccc23)cn1: active

// query What call does the record list for O=C(c1cc(Cc2n[nH]c(=O)c3ccccc23)ccc1F)N1CCN(C(=O)C2CC2)CC1 + Cc1[nH]c2ccc(F)cc2c1-c1nc2c3cccnc3c3ncccc3c2[nH]1 ?
// result inactive

// query Follow-up entry: CCCS(=O)(=O)Nc1ccc(F)c(C(=O)c2c[nH]c3ncc(-c4ccc(Cl)cc4)cc23)c1F + Cc1cnc(CNC(=O)c2c(=O)c3ccc(N4CCCN(C)CC4)nc3n3c2sc2ccccc23)cn1
// result inactive
